- Tested on: SF-268 CNS
- assayOverview: NCI-60 one-dose screen, 48 h (100 = growth as untreated, 0 = no growth, -100 = all killed)
- measurementConditions: 10 µM unless noted
Compounds without any hit were thinned out: in the full panel of roughly 83,000, 20% have a hit.
Listing of recorded growth by entry.
Unit % implied. Number only.

// below: answered molecules
Cc1cc(SC#N)ncn1: 111
NC(=O)c1cccc(-c2ccc(S(=O)(=O)Nc3ccc4c(c3)N(C(=O)C3CC3)CCC4)cc2)c1: 48.8
CC(C)OC(=O)Nc1cc(F)ccc1F: 103
CCOC(=O)c1cc(C(=O)c2ccc(OC)c(OC)c2)n2ccc(-c3ccccn3)cc12: 25.3
N#Cc1c(N2CCOCC2)nc(=S)[nH]c1-c1ccco1: 77.3

**Q:** Lab note: SF-268 CNS assay, enter growth for CCCn1ccnc1C(O)c1ccc(OCc2ccccc2)c(OC)c1 (stereo unspecified) here
**A:** 93.4

**Q:** Find growth for Nc1cccc2c1C(=O)c1cccc(NC(=O)c3ccccc3)c1C2=O on SF-268 CNS and write it down.
**A:** 51.5

**Q:** Param request: growth | system SF-268 CNS | item CNC(=O)c1cc(Oc2ccc3nc(NC(=O)c4ccc5ncccc5c4)sc3c2)ccn1
**A:** 97.4

**Q:** For SF-268 CNS, give growth of the listed molecule: COc1ccc2[nH]c(C(=O)N3CCN(C(=O)OCc4ccc5c(Br)cc(Br)c(O)c5n4)CC3)cc2c1
**A:** -80.2

**Q:** Provide measured growth on SF-268 CNS for COc1ccc(C(C(=O)O)c2ccc(OC)cc2)cc1 please.
**A:** 103

**Q:** Fill in growth for CC1(C)C(=NO)C(C)(C)C1=NO tested with SF-268 CNS.
**A:** 103
